assay: Solubility in aqueous solutions of surfactants/additives and non-aqueous vehicles (Experimental Example 6)
Format: physicochemical
condition_notes: 5% amycol no. 1
outcome_measure: solubility (µg/mL)

[
  {
    "compound": "NC(=O)c1nc[nH]c1O [Compound A, 4-carbamoyl-5-hydroxyimidazole]",
    "unit_spec": "µg/mL",
    "recorded_result": 5100
  }
]

* * *

assay: Solubility in solutions of basic substances (Experimental Example 7)
Type: physicochemical
condition_notes: pH 8.42, aqueous buffer; NaHCO3-Na2CO3 buffer; pH of solvent 8.42

[
  {
    "molecule": "NC(=O)c1nc[nH]c1O [Compound A, 4-carbamoyl-5-hydroxyimidazole]",
    "solubility, mg/mL": 26.7
  }
]

FYI, the data here is from patent US4582845A.
